test system: MDA-MB-435; assay: NCI tumour cell line growth inhibition, 48 h
Listed molecules paired with reported TGI

Example molecules with recorded TGI:
>>> observed_measurement("CC(C)C(Nc1ncnc2nc[nH]c12)C(=O)O (centres undefined)")
"> 100 µM"
>>> observed_measurement("CC1CCCC(C(=O)CC2CC(=O)NC(=O)C2)C1=O (centres undefined)")
"> 100 µM"
>>> observed_measurement("COC(=O)c1c(O)ccc2c1c1cc3ccccc3cc1n2Cc1cc(OC)cc(OC)c1")
"1.86 µM"

Exercise: Note down TGI recorded for "CCN1CCC(CC(=O)Nc2n[nH]c3nnc(-c4cccc(F)c4F)cc23)CC1"
Solution: > 25 µM

Exercise: Note down TGI recorded for "CCC(=O)Nc1cccc(N=Cc2ccc(OC(=O)/C=C\c3ccccc3)cc2)c1"
Solution: > 75 µM

Exercise: Note down TGI recorded for "CN1CCN(C(=O)CCC(=O)Nc2cc3c(c4ccccc24)-c2ccc4ccccc4c2C3)CC1"
Solution: 3.02 µM

Exercise: Note down TGI recorded for "CCCCCCCCCCCCCC[n+]1ccccc1"
Solution: 1.87 µM

Exercise: Note down TGI recorded for "OCc1ccc(-c2csc(-c3ccc(CO)o3)c2)o1"
Solution: > 100 µM

Exercise: Note down TGI recorded for "O=C([O][Hg][c]1ccccc1)c1ccccc1"
Solution: 3.1 µM

Exercise: Note down TGI recorded for "COc1cc2c(NCCCCCO)ncnc2c(OC)c1OC"
Solution: > 100 µM

Exercise: Note down TGI recorded for "Cc1ccc(-c2nc3nc(-c4ccc(F)cc4)nc(N4CCNCC4)c3o2)cc1"
Solution: 3.24 µM

Exercise: Note down TGI recorded for "Nc1nc(Cl)cc(OCC2(CO)CCCC2)n1"
Solution: > 100 µM

Exercise: Note down TGI recorded for "COc1ccc(-c2oc3ccccc3c(=O)c2O)cc1OC"
Solution: > 100 µM

Exercise: Note down TGI recorded for "O=c1[nH]c2ccccc2c(O)c1Cc1ccccc1"
Solution: > 100 µM

---

test system: RXF-631 renal; assay: NCI tumour cell line growth inhibition, 48 h
QUANTITY_KIND: TGI

Example compounds with recorded TGI:
>>> observed_measurement("OCC1OC2c3ccccc3COC2C1OCc1ccccc1 (centres undefined)")
"> 100 µM"
>>> observed_measurement("COc1cccc2c1OC1Sc3ccccc3-c3nn(-c4ccccc4)c-2c31 (centres undefined)")
"> 100 µM"
>>> observed_measurement("Cc1cc(=O)oc2cc(OCCCOc3ccc4c(C)cc(=O)oc4c3)ccc12")
"> 100 µM"

Alright, here's another compound for you.
Exercise: Note down TGI recorded for "COC(=O)Cc1c([C@@]2(C)CCCC(C)(C)C2)ccc2c1C(=O)OC2"
Solution: 29.4 µM

---

tested on: DU-145 prostate; assay: NCI tumour cell line growth inhibition, 48 h
Listed compounds paired with reported log10 TGI
Recall that a logarithmic scale is used here: each number is log10 of TGI in µM.

>>> observed_measurement("C=C(C)[C@@H](O)[C@H](O)C[C@H](C)C1CC[C@]2(C)C1=CC[C@@H]1[C@@]3(C)CC[C@@H](OC(C)=O)C(C)(C)[C@@H]3C[C@@H](OC3OC(COC(C)=O)C(O)C(O)C3O)[C@]12C (stereo partly specified)")
1.05
>>> observed_measurement("COc1ccc(-c2cc(/C=C3\\C(=O)Nc4cc(Cl)ccc43)[nH]n2)cc1")
1.33
>>> observed_measurement("O=C1/C(=C/c2ccc(O)cc2)CCCC1CN1CCCCC1 (stereo unspecified)")
1.22
>>> observed_measurement("O=C(c1ccccc1)C(Cl)C(Cl)c1ccccc1 (stereo unspecified)")
1.01
>>> observed_measurement("COc1cc2c3c(n(CCCN4CCNCC4)c(=O)c2cc1OC)-c1cc2c(cc1C3=O)OCO2")
0.01

Alright, here's another compound for you.
Exercise: Note down log10 TGI recorded for "COC(=O)c1ccc2nc(-c3cc4ccccc4n3C)n(CCCCOc3cc4c(cc3OC)C(=O)N3CCC[C@H]3C=N4)c2c1"
Solution: -0.25

---

Listed compounds paired with reported TGI
system: A498 renal; experiment: NCI tumour cell line growth inhibition, 48 h
Output spec: scalar in µM, unitless text.

Example compounds with recorded TGI:
>>> observed_measurement("COc1cc2c3c(n(CCCN4CCNCC4)c(=O)c2cc1OC)-c1cc2c(cc1C3=O)OCO2")
4.44
>>> observed_measurement("Clc1cc(-c2ccccc2)nc(Nc2nc3ccccc3[nH]2)n1")
98.3
>>> observed_measurement("CC(c1cc(Cl)ccc1O)c1cc(Cl)ccc1O")
20.8
>>> observed_measurement("Cc1ccc(-c2nc3nc(-c4ccc(F)cc4)nc(N4CCNCC4)c3o2)cc1")
30.5
>>> observed_measurement("O=C(CN1CCN(Cc2ccccc2Cl)CC1)NC1CC(=O)c2c(Br)sc(Br)c21 (stereo not given)")
35.4

Exercise: Note down TGI recorded for "Cc1cc2cc3cc(C)c(N)cc3nc2cc1N"
Solution: 1.89

Exercise: Note down TGI recorded for "Nn1c(Nc2ccc(S(N)(=O)=O)cc2)nnc(/C=C/c2c(O)ccc3ccccc23)c1=O"
Solution: 73.6

Exercise: Note down TGI recorded for CC(C)(C)COC(=O)C(C)(C)NC(=O)C(CC(=O)OCc1ccccc1)NC(=O)OCc1ccccc1 (stereo not given)
Solution: 79.5

---

Listed compounds paired with reported TGI
system: OVCAR-4 ovarian; assay: NCI tumour cell line growth inhibition, 48 h

>>> observed_measurement("CC#C[C@]1(O)CCC2[C@@H]3CCC4=CC(=O)CCC4=C3[C@@H](c3ccc(N(C)C)cc3)C[C@@]21C (stereo partly specified)")
"33.5 µM"
>>> observed_measurement("O=C1CC(/C=C/c2ccco2)=C(O)C1=O")
"27.3 µM"

Alright, here's another compound for you.
Exercise: Note down TGI recorded for "O=C(NC(=Nc1ccccc1)SCSC(=Nc1ccccc1)NC(=O)c1ccco1)c1ccco1"
Solution: > 100 µM

---

test system: HOP-62 NSCLC; assay: NCI tumour cell line growth inhibition, 48 h
QUANTITY_KIND: TGI

Example molecules with recorded TGI:
>>> observed_measurement("c1coc(-c2nccc3c2[nH]c2ccccc23)c1")
"> 100 µM"
>>> observed_measurement("Fc1ccc(-c2sc(-c3ccsc3)cc2Cc2ccsc2)cc1")
"> 10 µM"

Exercise: Report TGI from HOP-62 NSCLC testing of "CCC(=O)Nc1cccc(N=Cc2ccc(OC(=O)/C=C\c3ccccc3)cc2)c1"
Solution: > 75 µM

---

test system: EKVX NSCLC; test: NCI tumour cell line growth inhibition, 48 h
Listed molecules paired with reported GI50

>>> observed_measurement("COc1cc2c3c(n(CCCN4CCNCC4)c(=O)c2cc1OC)-c1cc2c(cc1C3=O)OCO2")
"8.51 µM"

Exercise: Note down GI50 recorded for "COc1cc2c3c(n(CCCN(CCCN(CCCn4c5c(c6ccccc6c4=O)C(=O)c4ccccc4-5)C(=O)OC(C)(C)C)C(=O)OC(C)(C)C)c(=O)c2cc1OC)-c1cc2c(cc1C3=O)OCO2"
Solution: 11.8 µM

Exercise: Note down GI50 recorded for "C[C@H](c1ccc(F)cc1CCCC(=O)O)N(c1cc(F)ccc1F)S(=O)(=O)c1ccc(Cl)cc1"
Solution: 30 µM

Exercise: Note down GI50 recorded for "CN(C)C1CCN(Cc2ccc(NC(=O)c3cncc(C#Cc4cnc(N)c5ncccc45)c3)cc2C(F)(F)F)CC1"
Solution: 8.46 µM

Exercise: Note down GI50 recorded for COc1ccc2c(c1)N(Cc1ccc(Cl)cc1)CCC2N1CCCC1=O (stereo not given)
Solution: 3.39 µM

Exercise: Note down GI50 recorded for "O=C(CCCn1c2c(sc3ccccc32)c(=O)n2nnc(-c3ccccc3)c12)NCCc1cnc[nH]1"
Solution: 3.52 µM

Exercise: Note down GI50 recorded for CNS(=O)(=O)OCC1OC(n2cnc3cncnc32)C(O)C1O (stereo not given)
Solution: > 100 µM

---

tested on: SR leukemia; assay: NCI tumour cell line growth inhibition, 48 h
Listed compounds paired with reported TGI

Example compounds with recorded TGI:
>>> observed_measurement("C/C=C1/CN2CCC34c5ccccc5N(C)C23C2CC1C4(C(=O)OC)C(OC(C)=O)O2 (stereo not drawn)")
"> 100 µM"
>>> observed_measurement("CC#C[C@]1(O)CCC2[C@@H]3CCC4=CC(=O)CCC4=C3[C@@H](c3ccc(N(C)C)cc3)C[C@@]21C (stereo partly drawn)")
"37.1 µM"
>>> observed_measurement("COc1cc2c3c(n(CCCN(CCCN(CCCn4c5c(c6ccccc6c4=O)C(=O)c4ccccc4-5)C(=O)OC(C)(C)C)C(=O)OC(C)(C)C)c(=O)c2cc1OC)-c1cc2c(cc1C3=O)OCO2")
"> 100 µM"
>>> observed_measurement("Oc1c(CN2CCCC2)ccc2cccnc12")
"> 100 µM"
>>> observed_measurement("CC1(C)CC(=O)C=C(/C=C/Sc2c(Cl)c(Cl)nc(Cl)c2Cl)C1")
"> 100 µM"

Alright, here's another compound for you.
Exercise: Report TGI from SR leukemia testing of "O=C1CC(/C=C/c2ccco2)=C(O)C1=O"
Solution: 37.2 µM

All values here come from PubChem BioAssay (NCI).
